target: Nav1.5 (Homo sapiens); construct: expressed in transfected cells; experiment: Inhibition of Nav1.5 as measured using QPatch; assay type: cell-based
Sequence (Q14524 whole entry): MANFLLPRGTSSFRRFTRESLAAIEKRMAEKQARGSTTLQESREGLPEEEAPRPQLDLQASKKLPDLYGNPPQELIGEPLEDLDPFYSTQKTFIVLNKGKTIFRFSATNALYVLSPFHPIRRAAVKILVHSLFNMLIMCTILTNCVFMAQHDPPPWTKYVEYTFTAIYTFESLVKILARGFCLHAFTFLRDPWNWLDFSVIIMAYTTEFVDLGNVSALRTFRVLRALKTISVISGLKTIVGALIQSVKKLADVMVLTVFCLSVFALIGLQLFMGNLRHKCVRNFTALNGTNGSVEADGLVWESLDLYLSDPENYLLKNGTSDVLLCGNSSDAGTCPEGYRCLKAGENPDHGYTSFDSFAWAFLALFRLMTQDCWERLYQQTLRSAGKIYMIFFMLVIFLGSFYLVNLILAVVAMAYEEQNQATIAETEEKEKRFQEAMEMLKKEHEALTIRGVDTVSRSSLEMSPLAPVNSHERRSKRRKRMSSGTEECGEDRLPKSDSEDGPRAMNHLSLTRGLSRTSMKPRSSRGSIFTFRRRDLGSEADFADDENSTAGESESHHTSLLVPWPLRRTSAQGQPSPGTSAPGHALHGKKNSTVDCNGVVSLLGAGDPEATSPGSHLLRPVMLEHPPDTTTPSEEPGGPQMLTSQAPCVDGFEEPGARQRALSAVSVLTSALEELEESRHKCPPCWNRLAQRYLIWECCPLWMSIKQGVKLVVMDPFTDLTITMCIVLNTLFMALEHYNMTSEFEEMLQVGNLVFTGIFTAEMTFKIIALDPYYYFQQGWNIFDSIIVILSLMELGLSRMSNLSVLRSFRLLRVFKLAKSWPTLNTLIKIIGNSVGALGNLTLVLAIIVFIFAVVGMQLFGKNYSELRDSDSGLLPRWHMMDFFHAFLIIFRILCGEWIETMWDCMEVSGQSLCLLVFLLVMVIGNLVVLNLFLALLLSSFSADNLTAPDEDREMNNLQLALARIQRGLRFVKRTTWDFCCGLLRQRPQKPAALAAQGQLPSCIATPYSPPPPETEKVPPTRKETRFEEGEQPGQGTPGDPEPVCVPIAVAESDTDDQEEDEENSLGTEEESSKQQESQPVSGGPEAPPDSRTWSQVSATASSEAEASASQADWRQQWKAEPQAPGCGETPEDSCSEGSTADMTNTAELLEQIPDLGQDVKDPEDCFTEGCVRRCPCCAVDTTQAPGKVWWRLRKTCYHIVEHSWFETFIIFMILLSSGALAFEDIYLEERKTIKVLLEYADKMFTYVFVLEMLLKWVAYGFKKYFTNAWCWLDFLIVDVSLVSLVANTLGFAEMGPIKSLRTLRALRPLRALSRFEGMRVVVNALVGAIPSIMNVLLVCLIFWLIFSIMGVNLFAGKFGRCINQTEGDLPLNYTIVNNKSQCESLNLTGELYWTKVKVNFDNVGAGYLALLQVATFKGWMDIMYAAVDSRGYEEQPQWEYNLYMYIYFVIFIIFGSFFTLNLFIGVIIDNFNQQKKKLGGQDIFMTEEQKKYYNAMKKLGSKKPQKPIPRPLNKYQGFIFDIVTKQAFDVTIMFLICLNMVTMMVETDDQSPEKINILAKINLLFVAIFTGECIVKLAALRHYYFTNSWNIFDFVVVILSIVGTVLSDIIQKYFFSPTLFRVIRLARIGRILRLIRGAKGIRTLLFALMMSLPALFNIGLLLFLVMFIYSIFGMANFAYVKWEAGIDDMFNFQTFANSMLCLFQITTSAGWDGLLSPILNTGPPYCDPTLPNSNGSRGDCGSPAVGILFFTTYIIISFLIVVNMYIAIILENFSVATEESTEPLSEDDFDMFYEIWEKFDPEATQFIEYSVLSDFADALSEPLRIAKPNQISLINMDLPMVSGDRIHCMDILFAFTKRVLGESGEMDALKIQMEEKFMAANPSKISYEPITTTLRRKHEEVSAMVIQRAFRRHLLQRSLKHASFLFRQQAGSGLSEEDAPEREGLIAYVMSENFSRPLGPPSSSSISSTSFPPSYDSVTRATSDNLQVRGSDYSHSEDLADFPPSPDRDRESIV
pIC50: −log10 of the molar value.
Would you please tag the item Satisfied when its pIC50 is 6 or above, and Not satisfied when it is below?

Example results:
- chemical_smiles: "CN(c1ccccc1)c1nc(N)nc(-c2noc(-c3ccc(OCC(F)(F)F)nc3)n2)n1"
  class_name: "Not satisfied"
- chemical_smiles: "CN(c1ccccc1)c1nc(N)nc(-c2noc(C(=O)NCc3ccccc3)n2)n1"
  class_name: "Not satisfied"
- chemical_smiles: "CN(c1ccccc1)c1nc(N)nc(-c2noc(C(=O)NC3CCCC3)n2)n1"
  class_name: "Not satisfied"

Input line: Is the recorded value of pIC50 equal to or greater than 6 for this molecule? Nc1nc(Nc2ccccc2)nc(-c2noc(-c3ccc(OCC(F)(F)F)nc3)n2)n1
Output line: Satisfied

Input line: Is the recorded value of pIC50 equal to or greater than 6 for this molecule? Nc1nc(Nc2ccccc2)nc(-c2noc(-c3nccs3)n2)n1
Output line: Not satisfied

----------
molecular target: Nav 1.7 (Homo sapiens, UniProt Q15858); construct: expressed in transfected cells; assay: Whole-cell voltage clamp electrophysiology, manual patch clamp (marker b in Table of Examples); type: cell-based; conditions: marker b: Manual patch clamp data; read-out: Nav 1.7 activity
Sequence (Q15858 whole entry): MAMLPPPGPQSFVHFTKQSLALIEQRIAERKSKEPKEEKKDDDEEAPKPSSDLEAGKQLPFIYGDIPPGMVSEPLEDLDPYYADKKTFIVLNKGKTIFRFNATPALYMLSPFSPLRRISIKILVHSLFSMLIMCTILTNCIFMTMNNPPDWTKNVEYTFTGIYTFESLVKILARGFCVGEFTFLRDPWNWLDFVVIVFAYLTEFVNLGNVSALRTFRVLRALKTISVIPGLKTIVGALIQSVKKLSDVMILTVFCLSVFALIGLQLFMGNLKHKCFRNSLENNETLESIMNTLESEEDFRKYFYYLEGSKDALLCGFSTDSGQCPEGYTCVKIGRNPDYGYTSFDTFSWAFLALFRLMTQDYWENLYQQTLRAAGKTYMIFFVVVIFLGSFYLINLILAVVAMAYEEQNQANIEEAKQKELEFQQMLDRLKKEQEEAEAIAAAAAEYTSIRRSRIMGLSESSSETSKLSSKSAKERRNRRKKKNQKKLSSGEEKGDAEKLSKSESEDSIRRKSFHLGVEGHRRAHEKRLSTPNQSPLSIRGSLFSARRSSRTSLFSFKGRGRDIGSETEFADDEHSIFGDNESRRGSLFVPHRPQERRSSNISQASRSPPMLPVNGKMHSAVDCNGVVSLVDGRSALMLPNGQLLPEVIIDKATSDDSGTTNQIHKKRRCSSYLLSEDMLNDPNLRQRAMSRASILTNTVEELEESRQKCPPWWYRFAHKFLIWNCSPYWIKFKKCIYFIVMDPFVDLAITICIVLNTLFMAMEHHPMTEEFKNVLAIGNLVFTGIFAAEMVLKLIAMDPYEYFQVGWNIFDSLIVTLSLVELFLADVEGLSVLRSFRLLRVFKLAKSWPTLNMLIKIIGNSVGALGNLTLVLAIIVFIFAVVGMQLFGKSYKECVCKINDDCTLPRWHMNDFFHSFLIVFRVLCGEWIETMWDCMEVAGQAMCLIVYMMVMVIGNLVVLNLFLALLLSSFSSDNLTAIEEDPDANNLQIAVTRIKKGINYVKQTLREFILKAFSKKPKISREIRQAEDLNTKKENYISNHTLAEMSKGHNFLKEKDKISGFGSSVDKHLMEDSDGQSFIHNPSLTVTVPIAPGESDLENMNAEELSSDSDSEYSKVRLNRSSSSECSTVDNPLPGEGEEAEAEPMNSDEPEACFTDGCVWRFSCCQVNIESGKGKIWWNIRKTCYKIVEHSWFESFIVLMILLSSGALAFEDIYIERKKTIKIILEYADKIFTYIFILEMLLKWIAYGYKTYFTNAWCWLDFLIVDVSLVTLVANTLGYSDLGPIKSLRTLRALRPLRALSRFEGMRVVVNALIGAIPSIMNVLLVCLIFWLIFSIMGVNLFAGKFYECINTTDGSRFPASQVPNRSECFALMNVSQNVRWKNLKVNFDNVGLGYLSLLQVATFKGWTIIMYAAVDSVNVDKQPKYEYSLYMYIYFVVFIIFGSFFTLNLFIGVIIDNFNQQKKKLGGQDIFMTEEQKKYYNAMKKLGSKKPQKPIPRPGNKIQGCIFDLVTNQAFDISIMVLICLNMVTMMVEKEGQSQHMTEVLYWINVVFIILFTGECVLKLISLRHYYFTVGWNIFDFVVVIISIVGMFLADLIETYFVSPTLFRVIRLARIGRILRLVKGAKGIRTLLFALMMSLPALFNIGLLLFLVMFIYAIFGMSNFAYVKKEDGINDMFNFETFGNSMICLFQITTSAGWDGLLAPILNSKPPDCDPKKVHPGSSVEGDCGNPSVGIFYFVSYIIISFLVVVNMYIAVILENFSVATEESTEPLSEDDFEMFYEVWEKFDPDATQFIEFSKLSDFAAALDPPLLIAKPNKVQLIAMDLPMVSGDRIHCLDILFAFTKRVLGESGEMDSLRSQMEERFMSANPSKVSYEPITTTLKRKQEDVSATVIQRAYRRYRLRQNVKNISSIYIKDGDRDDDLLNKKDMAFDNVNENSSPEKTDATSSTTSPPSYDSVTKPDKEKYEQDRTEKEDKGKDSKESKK
Doc: threshold 0.3 µM (exclusive). Items with IC50 beneath it return true (1); others return false (0).

Example results:
- chemical_smiles: "COCCN(c1ccccc1)c1nc(N)nc(-c2noc(-c3ccco3)n2)n1"
  class_name: "false (0)"
- chemical_smiles: "Cc1ccc(N(C)c2nc(N)nc(-c3noc(-c4ccco4)n3)n2)cc1"
  class_name: "false (0)"
- chemical_smiles: "CN(c1ccc(F)cc1)c1nc(N)nc(-c2noc(-c3ccco3)n2)n1"
  class_name: "true (1)"
- chemical_smiles: "CN(c1ccccc1)c1nc(N)nc(-c2noc(N3CCC(COCC(F)(F)F)CC3)n2)n1"
  class_name: "true (1)"

Input line: I'd appreciate it if you could check whether Nc1nc(Nc2cc(Cl)ccc2F)nc(-c2noc(-c3ccco3)n2)n1 has IC50 smaller than 0.3 µM.
Output line: true (1)

Input line: I'd appreciate it if you could check whether Cc1ccc(F)c(N(C)c2nc(N)nc(-c3noc(-c4ccco4)n3)n2)c1 has IC50 smaller than 0.3 µM.
Output line: true (1)

Input line: I'd appreciate it if you could check whether CN(c1ccc(Cl)cc1)c1nc(N)nc(-c2noc(-c3ccco3)n2)n1 has IC50 smaller than 0.3 µM.
Output line: false (0)

Input line: I'd appreciate it if you could check whether CN(c1ccccc1)c1nc(N)nc(-c2noc(-c3cncc(N)c3)n2)n1 has IC50 smaller than 0.3 µM.
Output line: false (0)

----------
target: Nav 1.7 (Homo sapiens, UniProt Q15858); construct: expressed in transfected cells; experiment: Whole-cell voltage clamp electrophysiology, manual patch clamp (marker b in Table of Examples); type: cell-based; conditions: marker b: Manual patch clamp data; read-out: Nav 1.7 activity
# pIC50 per entry
When answering, recall that pIC50 equals minus log10 of the concentration in mol/L, and write that number alone.

Consider the following illustrative entries.
- chemical_smiles: "CN(c1cccc(F)c1)c1nc(N)nc(-c2noc(-c3ccccc3Cl)n2)n1"
  system_tested: "Nav 1.7 (Homo sapiens, UniProt Q15858)"
  pIC50: 6.90
- chemical_smiles: "CN(c1ccccc1)c1nc(N)nc(-c2noc(N3CCCCC3)n2)n1"
  system_tested: "Nav 1.7 (Homo sapiens, UniProt Q15858)"
  pIC50: 6.29
- chemical_smiles: "CN(c1ccccc1)c1nc(N)nc(-c2noc(-c3ccc(Cl)s3)n2)n1"
  system_tested: "Nav 1.7 (Homo sapiens, UniProt Q15858)"
  pIC50: 5.63
- chemical_smiles: "CN(c1ccccc1)c1nc(N)nc(-c2noc(-c3ccc(OC4CCCC4)nc3)n2)n1"
  system_tested: "Nav 1.7 (Homo sapiens, UniProt Q15858)"
  pIC50: 8.40
- chemical_smiles: "CN(c1ccccc1)c1nc(N)nc(-c2noc(-c3cncs3)n2)n1"
  system_tested: "Nav 1.7 (Homo sapiens, UniProt Q15858)"
  pIC50: 6.04
- chemical_smiles: "Cc1cccc(N(C)c2nc(N)nc(-c3noc(-c4ccco4)n3)n2)c1"
  system_tested: "Nav 1.7 (Homo sapiens, UniProt Q15858)"
  pIC50: 6.57
- chemical_smiles: "CN(c1nc(N)nc(-c2noc(-c3ccco3)n2)n1)c1cc(F)ccc1F"
  system_tested: "Nav 1.7 (Homo sapiens, UniProt Q15858)"
  pIC50: 7.03
- chemical_smiles: "Nc1nc(Nc2ccccc2)nc(-c2noc(-c3ccco3)n2)n1"
  system_tested: "Nav 1.7 (Homo sapiens, UniProt Q15858)"
  pIC50: 7.04

// below: pIC50 requested for another molecule
Entry CN(c1ccccc1)c1nc(N)nc(-c2noc(-c3ccccc3Cl)n2)n1 ; assay system Nav 1.7 (Homo sapiens, UniProt Q15858); pIC50 recorded at 6.97

Values from patent US8895733B2
